The measurements presented in this section are drawn from patent US20250313535A1.

system: α4β1 integrin (Homo sapiens (Human), UniProt P05556+P13612)
Sequence (P13612 34-1032): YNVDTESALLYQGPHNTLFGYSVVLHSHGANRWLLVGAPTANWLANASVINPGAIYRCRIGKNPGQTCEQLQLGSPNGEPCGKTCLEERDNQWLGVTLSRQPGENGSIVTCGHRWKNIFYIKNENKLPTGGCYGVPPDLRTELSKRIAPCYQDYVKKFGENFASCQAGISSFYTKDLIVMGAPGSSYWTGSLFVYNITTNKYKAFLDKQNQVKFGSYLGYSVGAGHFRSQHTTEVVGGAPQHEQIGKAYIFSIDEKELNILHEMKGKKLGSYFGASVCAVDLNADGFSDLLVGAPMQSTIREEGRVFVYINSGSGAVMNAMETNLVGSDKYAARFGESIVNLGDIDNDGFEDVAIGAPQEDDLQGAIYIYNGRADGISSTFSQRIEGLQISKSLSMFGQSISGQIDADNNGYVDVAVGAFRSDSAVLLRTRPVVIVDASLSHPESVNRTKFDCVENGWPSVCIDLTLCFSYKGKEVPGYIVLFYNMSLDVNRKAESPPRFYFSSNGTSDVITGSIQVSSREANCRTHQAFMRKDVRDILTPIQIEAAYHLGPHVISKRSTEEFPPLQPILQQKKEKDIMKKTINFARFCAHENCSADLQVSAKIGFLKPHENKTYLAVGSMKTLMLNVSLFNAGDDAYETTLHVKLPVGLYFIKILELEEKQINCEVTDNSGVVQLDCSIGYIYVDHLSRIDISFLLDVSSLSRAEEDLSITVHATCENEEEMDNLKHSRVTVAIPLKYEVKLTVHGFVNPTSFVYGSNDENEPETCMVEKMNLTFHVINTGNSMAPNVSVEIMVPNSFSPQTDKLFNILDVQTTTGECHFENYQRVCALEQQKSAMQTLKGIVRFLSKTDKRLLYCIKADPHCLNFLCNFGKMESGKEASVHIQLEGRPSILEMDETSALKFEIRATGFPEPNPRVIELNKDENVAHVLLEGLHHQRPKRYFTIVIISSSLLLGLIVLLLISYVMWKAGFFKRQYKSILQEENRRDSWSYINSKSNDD
Sequence (P05556 21-798): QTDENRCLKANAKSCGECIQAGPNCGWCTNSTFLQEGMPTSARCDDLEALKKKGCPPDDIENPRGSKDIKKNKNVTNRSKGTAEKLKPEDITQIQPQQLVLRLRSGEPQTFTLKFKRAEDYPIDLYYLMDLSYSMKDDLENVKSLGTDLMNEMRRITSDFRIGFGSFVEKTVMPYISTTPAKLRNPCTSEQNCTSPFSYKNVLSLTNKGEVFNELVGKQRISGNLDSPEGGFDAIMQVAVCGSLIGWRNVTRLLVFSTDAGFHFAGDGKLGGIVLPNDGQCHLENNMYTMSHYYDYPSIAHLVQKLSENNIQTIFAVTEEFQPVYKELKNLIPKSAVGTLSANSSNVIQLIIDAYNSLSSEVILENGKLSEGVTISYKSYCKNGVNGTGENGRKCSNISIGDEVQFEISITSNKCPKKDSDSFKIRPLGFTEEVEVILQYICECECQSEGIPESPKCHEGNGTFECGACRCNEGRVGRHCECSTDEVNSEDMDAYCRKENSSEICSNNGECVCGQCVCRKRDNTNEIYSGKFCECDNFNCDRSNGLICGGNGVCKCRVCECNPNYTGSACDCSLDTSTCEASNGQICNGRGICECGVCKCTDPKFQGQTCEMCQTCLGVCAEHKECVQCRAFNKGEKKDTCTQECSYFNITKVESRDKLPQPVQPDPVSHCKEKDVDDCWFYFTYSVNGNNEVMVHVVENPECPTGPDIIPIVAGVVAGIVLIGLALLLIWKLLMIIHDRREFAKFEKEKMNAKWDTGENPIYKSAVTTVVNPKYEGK
procedure-text: Integrin Adhesion Assay: Protocol 5 (VCAM-coated plate, RPMI-8866 cells with stable LOF mutation of the ITGB7 gene)
Format: cell-based
conditions-used: Protocol 5; RPMI-8866 cells with LOF mutation of ITGB7, VCAM; read-out: Mean IC50 α4β1 KO
Quick list: IC50 per entry.

COc1c(-c2cccc3c(C[C@H](NC(=O)C4(C(F)(F)F)CCN(CC(F)(F)F)CC4)C(=O)O)cccc23)ccc2ccccc12
> 1000 nM

Fill in the blank: the reported IC50 of `O=C(O)[C@H](Cc1cccc2c(-c3ncc(CN4CC5CC(C5)C4)c4ccccc34)cccc12)NC(=O)C1(C(F)(F)F)CCN(CC(F)(F)F)CC1` is ____.
> 1000 nM

Fill in the blank: the reported IC50 of `CN(C)CCc1ccc2c(c1)c(C(F)(F)F)c(-c1cccc3c(C[C@H](NC(=O)c4c(F)cccc4F)C(=O)O)cccc13)c(=O)n2C` is ____.
100 to 1000 nM

Fill in the blank: the reported IC50 of `O=C(O)[C@H](Cc1cccc2c(-c3ncc(CN4CCCCC4)cc3C3CC3)cccc12)NC(=O)C1(C(F)(F)F)CCN(CC(F)(F)F)CC1` is ____.
100 to 1000 nM

---

system: α4β1 integrin (Homo sapiens (Human), UniProt P05556+P13612)
procedure-text: Integrin Adhesion Assay: Protocol 5 (VCAM-coated plate, RPMI-8866 cells with stable LOF mutation of the ITGB7 gene)
Type: cell-based
conditions-used: RPMI-8866 cells with stable LOF mutation of the ITGB7 gene; read-out: Mean IC50 α4β1 KO^b
pIC50: −log10 of the molar value.
parameter-measured: pIC50

# annotated cases, reported pIC50 shown
Cn1c(=O)c(-c2cccc3c(C[C@H](NC(=O)C4(C(F)(F)F)CCN(CCF)CC4)C(=O)O)cccc23)c(C(F)(F)F)c2ccccc21 [Compound 530]
6.00 to 7.00
COc1ccc(CN2CCCCC2)cc1-c1cccc2c(C[C@H](NC(=O)C3(C(F)(F)F)CCN(CC(F)(F)F)CC3)C(=O)O)cccc12 [Compound 575]
6.00 to 7.00
COc1cc(CCN(C)C)cc(OC)c1-c1cccc2c(C[C@H](NC(=O)C3(C(F)(F)F)CCN(CC(F)(F)F)CC3)C(=O)O)cccc12 [Compound 531]
6.00 to 7.00
Cn1c(=O)c(-c2cccc3c(C[C@H](NC(=O)C4(C(F)(F)F)CCNCC4)C(=O)O)cccc23)c(C(F)(F)F)c2ccccc21 [Compound 492]
< 6.00
Cn1c(=O)c(-c2cccc3c(C[C@H](NC(=O)C4(C(F)(F)F)CCN(C(C(F)(F)F)C(F)(F)F)CC4)C(=O)O)cccc23)c(C(F)(F)F)c2ccccc21 [Compound 490]
< 6.00

Look up pIC50 with α4β1 integrin (Homo sapiens (Human), UniProt P05556+P13612) for this compound: O=C(O)[C@H](Cc1cccc2c(-c3nccc4c(CN5CCC(F)CC5)cccc34)cccc12)NC(=O)C1(C(F)(F)F)CCN(CC(F)(F)F)CC1 [Compound 560]
< 6.00

Look up pIC50 with α4β1 integrin (Homo sapiens (Human), UniProt P05556+P13612) for this compound: COc1ccc(CN2CCC(F)(F)CC2)nc1-c1cccc2c(C[C@H](NC(=O)c3c(C)cccc3F)C(=O)O)cccc12 [Compound 600]
< 6.00

Look up pIC50 with α4β1 integrin (Homo sapiens (Human), UniProt P05556+P13612) for this compound: CCOCc1cc(OC)c(-c2cccc3c(C[C@H](NC(=O)C4(C(F)(F)F)CCN(C5COC5)CC4)C(=O)O)cccc23)c(OC)c1 [Compound 498]
6.00 to 7.00

Look up pIC50 with α4β1 integrin (Homo sapiens (Human), UniProt P05556+P13612) for this compound: Cn1c(=O)c(-c2cccc3c(C[C@H](NC(=O)c4c(F)cc5cnn(CC(F)(F)F)c5c4F)C(=O)O)cccc23)c(C(F)(F)F)c2ccccc21 [Compound 322]
6.00 to 7.00
